target: recombinant human plasminogen activator inhibitor-1 (PAI-1) (Homo sapiens, UniProt P05121); construct: purchased Molecular Innovations, Royal Oak, Mich; test: Primary Screen for the PAI-1 Inhibition; assay type: biochemical; conditions: 100 μM test compound; read-out: % Inhib. 100 μM
Sequence (P05121 24-402): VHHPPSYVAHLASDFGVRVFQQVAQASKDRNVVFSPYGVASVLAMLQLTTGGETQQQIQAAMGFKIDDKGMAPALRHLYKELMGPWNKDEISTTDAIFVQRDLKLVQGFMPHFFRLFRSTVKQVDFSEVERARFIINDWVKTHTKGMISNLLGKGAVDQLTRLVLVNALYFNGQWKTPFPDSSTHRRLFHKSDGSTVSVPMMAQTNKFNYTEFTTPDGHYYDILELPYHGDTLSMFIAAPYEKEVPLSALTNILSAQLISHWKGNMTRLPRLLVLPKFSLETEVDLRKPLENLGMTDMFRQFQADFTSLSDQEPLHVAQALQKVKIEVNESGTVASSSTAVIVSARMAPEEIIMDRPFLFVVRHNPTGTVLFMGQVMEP
Structures can show the parent of a compound that is named as a salt.
RECORDED_METRIC: inhibition at 100 µM (%)
Answers are plain numbers, in %.

Worked set:
CCCc1c(C(=O)N(C)Cc2ccc3c(Br)c(OC(Cc4ccccc4)C(=O)O)ccc3c2)cnn1-c1ccccc1 (stereo not drawn) [Example 66]	95
CCCCc1oc2ccccc2c1C(=O)Nc1ccc2cc(OCC(=O)O)ccc2c1 [Example 4, sodium salt]	66

Note: attention shifts to another entry.
Which inhibition at 100 µM value belongs to CCCCc1oc2ccccc2c1C(=O)Nc1ccc2cc(OCc3nn[nH]n3)ccc2c1 [Example 3] ?
75

---

Consider the following compounds; for each one, report its inhibition at 100 µM.
biological target: recombinant human plasminogen activator inhibitor-1 (PAI-1) (Homo sapiens, UniProt P05121); construct: purchased Molecular Innovations, Royal Oak, Mich; assay: Primary Screen for the PAI-1 Inhibition; type: biochemical; conditions: 100 μM test compound; read-out: % Inhib. 100 μM
Answers are plain numbers, in %.

CN(Cc1ccc2c(Br)c(OCc3nnn[nH]3)ccc2c1)C(=O)c1ccc(Oc2cc(Cl)cc(Cl)c2)o1	81
CCCCc1oc2ccccc2c1C(=O)NCc1ccc2c(-c3ccc(C(C)(C)C)cc3)c(OCc3nnn[nH]3)ccc2c1	39
CCCCc1oc2ccccc2c1C(=O)N(C)Cc1ccc2c(Br)c(OCc3nnn[nH]3)ccc2c1	95

Count: 8. Required value per item: inhibition at 100 µM.
1. O=C(O)COc1ccc2cc(CNC(=O)c3cnn(-c4ccc(Cl)cc4)c3C(F)(F)F)ccc2c1Br
2. Cc1oc2ccccc2c1C(=O)N(Cc1ccccc1)Cc1ccc2c(Br)c(OCc3nnn[nH]3)ccc2c1
3. CCCCc1oc2ccccc2c1C(=O)NCc1ccc2c(Br)c(OCC(=O)O)ccc2c1
4. O=C(O)COc1ccc2cc(NC(=O)c3cc(-c4ccccc4Cl)oc3C(F)(F)F)ccc2c1
5. Cc1c(C(=O)N(C)Cc2ccc3c(Br)c(OCC(Cc4ccccc4)C(=O)O)ccc3c2)oc2ccccc12 (stereo not shown)
6. CN(Cc1ccc2c(Br)c(OCC(=O)O)ccc2c1)C(=O)c1oc2ccccc2c1CCc1ccccc1
7. O=C(O)COc1ccc2cc(CNC(=O)c3ccccc3CCc3ccccc3)ccc2c1
8. O=C(O)COc1ccc2cc(NC(=O)c3cc(-c4ccc(-c5ccccc5)cc4)oc3C(F)(F)F)ccc2c1

1: 85; 2: 72; 3: 32; 4: 65; 5: 79; 6: 90; 7: 45; 8: 51

Give measured inhibition at 100 µM for every item shown.
1. CCCCc1oc2ccccc2c1C(=O)NCc1ccc2cc(OCC(=O)[O-])ccc2c1.[Na+]
2. CCc1oc2ccccc2c1C(=O)NCc1ccc2c(Br)c(OCc3nnn[nH]3)ccc2c1
3. CCc1oc2ccccc2c1C(=O)N(C)Cc1ccc2c(Br)c(OCc3nnn[nH]3)ccc2c1
4. CCCCc1oc2ccccc2c1C(=O)Nc1ccc2c(Br)c(OC(Cc3ccccc3)C(=O)O)ccc2c1 (stereo not shown)
5. CCCc1c(C(=O)NCc2ccc3cc(OCC(=O)O)ccc3c2)cnn1-c1ccccc1
6. CN(Cc1ccc2c(Br)c(OC(Cc3ccccc3)C(=O)O)ccc2c1)C(=O)c1ccc(C2CCCCC2)cc1 (stereo not shown)
7. CCCCc1oc2ccccc2c1C(=O)N(C)Cc1ccc2c(Br)c(OC(Cc3ccccc3)C(=O)O)ccc2c1 (stereo not shown)
8. CC(C)(C)c1cc(C(=O)Nc2ccc3cc(OCC(=O)O)ccc3c2)cc(C(C)(C)C)c1

[89, 54, 70, 83, 66, 75, 84, 51]

Give inhibition at 100 µM for each of the items listed below.
1. CCCCc1oc2ccccc2c1C(=O)NCc1ccc2c(-c3ccccc3)c(OCc3nnn[nH]3)ccc2c1
2. O=C(O)COc1ccc2cc(CNC(=O)C3(c4ccc(Cl)cc4)CCCC3)ccc2c1
3. CCCc1c(C(=O)NCc2ccc3c(Br)c(OCc4nnn[nH]4)ccc3c2)cnn1-c1ccccc1

72
34
70

---

Field: IC50. Provide a value for each of the molecules that follow.
biological target: recombinant human plasminogen activator inhibitor-1 (PAI-1) (Homo sapiens); construct: purchased Molecular Innovations, Royal Oak, Mich; test: Modification of the Primary Screen for the PAI-1 Inhibition (IC50); assay type: biochemical
Counter-ions that a name gives are not always drawn.
Numbers only, in µM.

// worked examples, IC50 included
CC(C)(C)c1cc(C(=O)NCc2ccc3c(Br)c(OC(Cc4ccccc4)C(=O)O)ccc3c2)cc(C(C)(C)C)c1 (stereo not shown)	1.9
CCCCc1oc2ccccc2c1C(=O)N(CCCC)Cc1ccc2c(Br)c(OCc3nnn[nH]3)ccc2c1	6.9
O=C(NCc1ccc2c(Br)c(OC(Cc3ccccc3)C(=O)O)ccc2c1)c1ccc(C2CCCCC2)cc1 (stereo not shown)	11.8
O=C(O)COc1ccc2cc(CNC(=O)c3cc(-c4ccccc4Cl)oc3C(F)(F)F)ccc2c1	36.5
CCCCc1oc2ccccc2c1C(=O)N(Cc1ccccc1)Cc1ccc2c(Br)c(OCc3nnn[nH]3)ccc2c1	20.9
CCCCc1oc2ccccc2c1C(=O)NCc1ccc2c(-c3ccccc3)c(OCc3nnn[nH]3)ccc2c1	9.94

Next molecule, IC50 to be filled in.
May I ask what IC50 has been recorded for CCCCc1oc2ccccc2c1C(=O)NCc1ccc2c(-c3ccc(OC)cc3)c(OCc3nnn[nH]3)ccc2c1 [Example 25, sodium salt] ?
4.6

---

Consider the following compounds; for each one, report its IC50.
biological target: human PAI-1 (Homo sapiens, UniProt P05121); test: Assay for Determining IC50 of Inhibition of PAI-1 (Antibody Assay); type: biochemical; conditions: active PAI-1 bound to tPA-coated plate
Sequence (P05121 24-402): as above
Give bare numbers, in µM.

Example results:
CCCCc1oc2ccccc2c1C(=O)NCc1ccc2c(Br)c(OC(Cc3ccccc3)C(=O)O)ccc2c1 (stereo not drawn)	15.7
CCCCN(Cc1ccc2c(Br)c(OCc3nnn[nH]3)ccc2c1)C(=O)c1c(C)oc2ccccc12	20.8
CN(Cc1ccc2c(Br)c(OC(Cc3ccccc3)C(=O)O)ccc2c1)C(=O)c1ccc(Oc2cc(Cl)cc(Cl)c2)o1 (stereo not drawn)	13.6
CCCCc1oc2ccccc2c1C(=O)N(Cc1ccccc1)Cc1ccc2c(Br)c(OC(Cc3ccccc3)C(=O)O)ccc2c1 (stereo not drawn)	20
CCCCc1oc2ccccc2c1C(=O)Nc1ccc2c(Br)c(OC(Cc3ccccc3)C(=O)O)ccc2c1 (stereo not drawn)	16.6

# batch: return IC50 for each of the 4 compounds below
1. CN(Cc1ccc2c(Br)c(OCc3nnn[nH]3)ccc2c1)C(=O)c1cn(C)c2ccccc12
2. CC(C)(C)c1cc(C(=O)N(Cc2ccccc2)Cc2ccc3c(Br)c(OC(Cc4ccccc4)C(=O)O)ccc3c2)cc(C(C)(C)C)c1 (stereo not drawn)
3. CCCCc1oc2ccccc2c1C(=O)NCc1ccc2c(-c3ccccc3)c(OCc3nnn[nH]3)ccc2c1
4. CCCCc1oc2ccccc2c1C(=O)N(CCCC)Cc1ccc2c(Br)c(OCc3nnn[nH]3)ccc2c1

20.6
16.8
16.8
18.7

---

target: recombinant human plasminogen activator inhibitor-1 (PAI-1) (Homo sapiens, UniProt P05121); construct: purchased Molecular Innovations, Royal Oak, Mich; assay: Primary Screen for the PAI-1 Inhibition; type: biochemical; details: 25 μM test compound; read-out: % Inhib. 25 μM
Where a name gives a salt, the structure may show the parent alone.
Kindly supply the reported inhibition at 25 µM values for the records listed here.
Give bare numbers, in %.

Consider the reported inhibition at 25 µM for these compounds:
CN(Cc1ccc2c(Br)c(OC(Cc3ccccc3)C(=O)O)ccc2c1)C(=O)c1ccc(C2CCCCC2)cc1 (centres unmarked)	24
CCCCc1oc2ccccc2c1C(=O)Nc1ccc2c(Br)c(OCC(=O)O)ccc2c1 [Example 6, sodium salt]	43
O=C(O)COc1ccc2cc(NC(=O)c3cc(-c4ccc(-c5ccccc5)cc4)oc3C(F)(F)F)ccc2c1	24
CCCCc1oc2ccccc2c1C(=O)Nc1ccc2c(Br)c(OC(Cc3ccccc3)C(=O)O)ccc2c1 (centres unmarked)	64

// next item, inhibition at 25 µM requested
Tell me reported inhibition at 25 µM for CCCCc1oc2ccccc2c1C(=O)NCc1ccc2cc(OCC(=O)[O-])ccc2c1.[Na+] , tested with recombinant human plasminogen activator inhibitor-1 (PAI-1) (Homo sapiens, UniProt P05121).
28

---

target: recombinant human plasminogen activator inhibitor-1 (PAI-1) (Homo sapiens); construct: purchased Molecular Innovations, Royal Oak, Mich; test: Primary Screen for the PAI-1 Inhibition; format: biochemical; details: 100 μM test compound; read-out: % Inhib. 100 μM
Assignment: determine reported inhibition at 100 µM for the given compounds.
Numbers only, in %.

CN(Cc1ccc2c(Br)c(OC(Cc3ccccc3)C(=O)O)ccc2c1)C(=O)c1ccc(Oc2cc(Cl)cc(Cl)c2)o1 (stereo not shown) [Example 64]	60

Kindly give each listed record's inhibition at 100 µM.
1. CC(C)(C)c1cc(C(=O)N(Cc2ccccc2)Cc2ccc3c(Br)c(OC(Cc4ccccc4)C(=O)O)ccc3c2)cc(C(C)(C)C)c1 (stereo not shown) [Example 69]
2. CCCCN(Cc1ccc2c(Br)c(OCc3nnn[nH]3)ccc2c1)C(=O)c1c(C)oc2ccccc12 [Example 52]
3. O=C(O)COc1ccc2cc(NC(=O)C3(c4ccc(Cl)cc4)CCCC3)ccc2c1 [Example 75]

[92, 81, 55]

# batch: return inhibition at 100 µM for each of the 4 compounds below
1. CCCCc1oc2ccccc2c1C(=O)NCc1ccc2c(Br)c(OCc3nnn[nH]3)ccc2c1.[Na] [Example 17, sodium salt]
2. CCCc1c(C(=O)NCc2ccc3c(Br)c(OC(Cc4ccccc4)C(=O)O)ccc3c2)cnn1-c1ccccc1 (stereo not shown) [Example 54]
3. CCc1oc2ccccc2c1C(=O)N(Cc1ccccc1)Cc1ccc2c(Br)c(OCc3nnn[nH]3)ccc2c1 [Example 50]
4. CCc1oc2ccccc2c1C(=O)NCc1ccc2c(Br)c(OC(Cc3ccccc3)C(=O)O)ccc2c1 (stereo not shown) [Example 58]

80
80
61
29

Batch request: inhibition at 100 µM for each of the following compounds.
1. CN(Cc1ccc2c(Br)c(OCc3nnn[nH]3)ccc2c1)C(=O)c1cn(C)c2ccccc12 [Example 37]
2. O=C(O)COc1ccc2cc(NC(=O)C3(c4ccc(Cl)cc4)CCC3)ccc2c1 [Example 80]

96
48

Sourced from patent US6589970B2
